Test system: A549 NSCLC
ASSAY: NCI tumour cell line growth inhibition, 48 h
Listing of entries alongside the reported TGI.

// known answers, use as guide
MOLECULE	ENDPOINT	VALUE
CC(C)(C)c1nc2c(o1)C(=Nc1ccc(F)cc1)c1ccccc1C2=O	TGI	22.7 µM
CCN(CC(=O)O)CC(=O)O	TGI	> 100 µM
CC(C)(C)C1(O)Cc2ccccc2C(=O)O1 (stereo unspecified)	TGI	> 100 µM
Cc1c(C(=O)NN)nnn1-c1ccnc2c(C(F)(F)F)cccc12	TGI	> 100 µM
COC(=O)/C=C\S/C(=C(/c1ccccc1)n1ccc(C(=O)OC)n1)c1ccccc1	TGI	> 100 µM
COc1cc(/C=C/c2cc(=O)cc(/C=C/c3ccc(O)c(OC)c3)o2)ccc1O	TGI	> 100 µM
Clc1ccc(CNc2nc3ccccc3nc2-c2cccs2)c(Cl)c1	TGI	> 100 µM
CC1(C)[C@@H]2C[C@H]1c1cnc(-c3ccccn3)cc1[C@H]2C(O)[C@@H]1c2cc(-c3ccccn3)ncc2[C@H]2C[C@@H]1C2(C)C (stereo partly specified)	TGI	18.3 µM

Look up TGI with A549 NSCLC for this molecule: COC(=O)C(CCSC)NC(=O)CSc1nnc(COc2ccc(Cl)cc2)n1-c1ccccc1 (stereo unspecified)
> 70.8 µM

Test system A549 NSCLC; read-out TGI; what value for CCC1(CC)C(=O)NC(=S)N=C1N ?
> 100 µM

Please tell me: TGI of O=c1c2ccccc2c2c3c1cccc3c1cccc3c(=O)c4ccccc4c2c31 , system A549 NSCLC?
> 100 µM

* * *

Test system: SF-295 CNS
ASSAY: NCI tumour cell line growth inhibition, 48 h
ENDPOINT: TGI

> print(dat)
                                   compound     value
1  COC(=O)C1=C(C)N2[C@H](C(=O)O)CS[C@@]2(C)[C@H](C(=O)OC)[C@H]1c1cccc([N+](=O)[O-])c1  > 100 µM
2          CN1CCN(C)C1c1cccc(C2N(C)CCN2C)c1  > 100 µM
3  COC(=O)/C=C\S/C(=C(/c1ccccc1)n1ccc(C(=O)OC)n1)c1ccccc1  > 100 µM
4  CC1(C)OC(CCO)CN1C(=O)OCc1ccccc1 (stereo not given)  > 100 µM
5  N#Cc1c(N)c(C(=O)O)nn(-c2cccc(C(F)(F)F)c2)c1=O  > 100 µM
6          Nc1ccc(SC23CC4CC(CC(C4)C2)C3)cc1  > 100 µM

If you can, please state the reported TGI value of Cc1ccc(C(=O)CC(Sc2cccc(Cl)c2Cl)c2ccc(Cl)cc2)cc1C (stereo not given) .
37.2 µM

* * *

System: A549 NSCLC
ASSAY: NCI tumour cell line growth inhibition, 48 h; in the data active means GI50 below about 0.43 µM; inactive means the rest
Result category, one only: true (1) (active), false (0) (inactive)

> print(dat)
                                   compound      class
1  Nc1nc(Nc2ccc(OCc3cccc(F)c3)cc2)c2c(n1)[nH]c1ccc(O)cc12  false (0)
2       CNc1nc(NC2CCCC2)nc(Sc2ccc(OC)cc2)n1  false (0)
3  COc1cc2c3c(n(CCCN4CCC(N)CC4)c(=O)c2cc1OC)-c1cc2c(cc1C3=O)OCO2   true (1)

Note: attention shifts to another entry.
Each compound tested received a call. Report the one for CCN(CCO)CCNc1ccc(C)c2sc3cc(Cl)ccc3c(=O)c12 .
false (0)

Origin of values: PubChem BioAssay (NCI)
